Recorded values, source patent US10844077B2.

% change of MS signal compared to control sample values by entry
TESTED SYSTEM: ITPK1 (Homo sapiens (Human))
Sequence (Q13572 whole entry): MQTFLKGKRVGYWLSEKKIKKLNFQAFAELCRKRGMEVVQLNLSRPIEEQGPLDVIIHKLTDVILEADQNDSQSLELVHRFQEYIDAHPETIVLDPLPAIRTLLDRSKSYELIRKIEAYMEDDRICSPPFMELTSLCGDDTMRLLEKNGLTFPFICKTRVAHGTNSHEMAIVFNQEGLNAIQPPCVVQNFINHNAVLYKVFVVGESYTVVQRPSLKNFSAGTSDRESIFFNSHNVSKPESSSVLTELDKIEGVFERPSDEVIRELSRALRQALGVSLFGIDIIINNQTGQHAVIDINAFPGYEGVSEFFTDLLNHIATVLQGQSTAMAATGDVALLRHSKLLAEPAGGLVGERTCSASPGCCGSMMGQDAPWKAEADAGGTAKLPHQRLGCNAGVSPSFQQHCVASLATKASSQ
ASSAY NOTES: KINATIV assay
Format: cell-based
PARTICULARS: 1 μM, 90 minutes, BCWM.1 cells
Quick note: give the figure in %, leave out the unit.

{"COMPOUND": "C=CC(=O)N1CCCCC(Nc2nccc(Nc3ncc(C(=O)Nc4c(C)cccc4C)s3)n2)C1 (stereo not shown)", "TESTED SYSTEM": "ITPK1 (Homo sapiens (Human))", "EXPERIMENTAL RESULT": "−17.5"}
{"COMPOUND": "C=CC(=O)N1CCC(CNc2nccc(Nc3ncc(C(=O)Nc4c(C)cccc4C)s3)n2)C1 (racemic)", "TESTED SYSTEM": "ITPK1 (Homo sapiens (Human))", "EXPERIMENTAL RESULT": "−16.4"}
{"COMPOUND": "C=CC(=O)N1CC[C@@H](Nc2nccc(Nc3ncc(C(=O)Nc4c(C)cccc4C)s3)n2)C1", "TESTED SYSTEM": "ITPK1 (Homo sapiens (Human))", "EXPERIMENTAL RESULT": 12.8}

Please turn your attention to the following entry.
// returns % change of MS signal compared to control sample for C=CC(=O)N1CCC(Cn2ccc(Nc3ncc(C(=O)Nc4c(C)cccc4Cl)s3)n2)C1 (stereo not shown) with ITPK1 (Homo sapiens (Human)); value = 14.0

---

Tested on: MWCL-1
ASSAY NOTES: CellTiter-Glo Luminescent cell viability assay
Type: cell-based
PARTICULARS: cell survival, 72 hours
QUANTITY MEASURED: EC50 (nM)
Form entry: value (nM) — number only.

Here's what some known entries look like.
{"COMPOUND": "C=CC(=O)N1CC[C@@H](Nc2nccc(Nc3nc4ccc(Oc5ccccc5)nc4s3)n2)C1", "EXPERIMENTAL RESULT": 1350}
{"COMPOUND": "Cn1ccc(Nc2nc3ccc(Oc4ccccc4)nc3s2)n1", "EXPERIMENTAL RESULT": 2170}
{"COMPOUND": "Cc1nc(Nc2ncc(C(=O)Nc3c(C)cccc3Cl)s2)cc(N2CCN(CCO)CC2)n1 [Dasatinib, dasatinib, reference compound]", "EXPERIMENTAL RESULT": 7.41}
{"COMPOUND": "C=CC(=O)N1CCC[C@@H](Nc2nccc(Nc3nc4ccc(Oc5ccccc5)nc4s3)n2)C1", "EXPERIMENTAL RESULT": 2160}
{"COMPOUND": "C=CC(=O)N1CC[C@@H](Nc2nccc(Nc3ncc(C(=O)Nc4c(C)cccc4C)s3)n2)C1", "EXPERIMENTAL RESULT": 85}

Lab book: EC50 of C=CC(=O)N1CCC[C@H](Nc2nccc(Nc3nc4ccc(Oc5ccccc5)nc4s3)n2)C1 noted as 5750

For C=CC(=O)N1CCCC(Cn2ccc(Nc3ncc(C(=O)Nc4c(C)cccc4Cl)s3)n2)C1 (stereo not drawn) the compound record lists EC50 as 166

Entry C=CC(=O)N1CCCC(Nc2nc(CN3CCOCC3)cc(Nc3ncc(C(=O)Nc4c(C)cccc4C)s3)n2)C1 (stereo not drawn) ; EC50 = 317

// field: EC50; key: C=CC(=O)N1CC[C@H](Nc2nccc(Nc3ncc(C(=O)Nc4c(C)cccc4C)s3)n2)C1 ; value = 55.2

Just so you know, measured EC50 for C=CC(=O)N1CCCCC(Nc2nccc(Nc3nc4ccc(Oc5ccccc5)nc4s3)n2)C1 (stereo not drawn) came out at 3370

Given item C=CC(=O)N1CCC(CNc2nccc(Nc3ncc(C(=O)Nc4c(C)cccc4C)s3)n2)C1 (stereo not drawn) , the value recorded as its EC50 is 103

Reported EC50 of C=CC(=O)N1CC[C@H](Nc2nc(CN3CCOCC3)cc(Nc3ncc(C(=O)Nc4c(C)cccc4Cl)s3)n2)C1 : 50

---

TESTED SYSTEM: IKKa (Homo sapiens (Human), UniProt O15111)
Sequence (O15111 whole entry): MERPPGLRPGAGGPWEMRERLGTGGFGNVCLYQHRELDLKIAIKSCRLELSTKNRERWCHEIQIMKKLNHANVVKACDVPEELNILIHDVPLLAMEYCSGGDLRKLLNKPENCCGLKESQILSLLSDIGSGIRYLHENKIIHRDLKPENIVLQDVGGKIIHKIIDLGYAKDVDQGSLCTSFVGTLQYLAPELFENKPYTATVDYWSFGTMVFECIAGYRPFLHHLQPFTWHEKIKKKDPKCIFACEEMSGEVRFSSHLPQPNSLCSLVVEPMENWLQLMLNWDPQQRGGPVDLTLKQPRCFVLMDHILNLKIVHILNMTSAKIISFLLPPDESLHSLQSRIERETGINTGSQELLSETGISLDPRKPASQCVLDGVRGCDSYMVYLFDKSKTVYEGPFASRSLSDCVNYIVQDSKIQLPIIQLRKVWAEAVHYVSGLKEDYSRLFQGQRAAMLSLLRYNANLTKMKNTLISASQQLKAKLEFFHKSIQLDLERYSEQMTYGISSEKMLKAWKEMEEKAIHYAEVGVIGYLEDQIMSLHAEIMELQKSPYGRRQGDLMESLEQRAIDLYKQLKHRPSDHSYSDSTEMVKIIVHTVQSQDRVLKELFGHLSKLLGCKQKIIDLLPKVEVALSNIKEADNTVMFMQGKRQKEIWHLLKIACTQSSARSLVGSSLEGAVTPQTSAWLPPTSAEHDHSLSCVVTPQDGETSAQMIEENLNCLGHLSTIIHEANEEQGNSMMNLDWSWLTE
ASSAY NOTES: KINATIV assay
Format: cell-based
PARTICULARS: 1 μM, 90 minutes, BCWM.1 cells
QUANTITY MEASURED: % change of MS signal compared to control sample (%)
Provide only the numeric value, understood in %.

Below are worked cases with known answers.
{"COMPOUND": "C=CC(=O)N1CCC(Cn2ccc(Nc3ncc(C(=O)Nc4c(C)cccc4Cl)s3)n2)C1 (stereo not shown)", "EXPERIMENTAL RESULT": "−2.1"}
{"COMPOUND": "C=CC(=O)N1CC[C@@H](Nc2nccc(Nc3ncc(C(=O)Nc4c(C)cccc4C)s3)n2)C1", "EXPERIMENTAL RESULT": 6.4}
{"COMPOUND": "C=CC(=O)N1CCC(CNc2nccc(Nc3ncc(C(=O)Nc4c(C)cccc4C)s3)n2)C1 (racemic)", "EXPERIMENTAL RESULT": "−4.2"}

With those in mind, consider the next compound.
Result for C=CC(=O)N1CCCCC(Nc2nccc(Nc3ncc(C(=O)Nc4c(C)cccc4C)s3)n2)C1 (stereo not shown) , tested on IKKa (Homo sapiens (Human), UniProt O15111), % change of MS signal compared to control sample: −3.5

---

Test system: RPMI-8226
ASSAY NOTES: CellTiter-Glo Luminescent cell viability assay
Assay type: cell-based
PARTICULARS: Homo sapiens, cell survival, 72 hours
QUANTITY MEASURED: EC50 (µM)
Give the value, in units of µM, as a plain number.

The measured EC50 associated with Cc1nc(Nc2ncc(C(=O)Nc3c(C)cccc3Cl)s2)cc(N2CCN(CCO)CC2)n1 [Dasatinib, dasatinib, reference compound] reads 5.39

---

The entries below are paired with their reported % change of MS signal compared to control sample.
TESTED SYSTEM: MARK2 (Homo sapiens (Human), UniProt Q7KZI7)
Sequence (Q7KZI7 whole entry): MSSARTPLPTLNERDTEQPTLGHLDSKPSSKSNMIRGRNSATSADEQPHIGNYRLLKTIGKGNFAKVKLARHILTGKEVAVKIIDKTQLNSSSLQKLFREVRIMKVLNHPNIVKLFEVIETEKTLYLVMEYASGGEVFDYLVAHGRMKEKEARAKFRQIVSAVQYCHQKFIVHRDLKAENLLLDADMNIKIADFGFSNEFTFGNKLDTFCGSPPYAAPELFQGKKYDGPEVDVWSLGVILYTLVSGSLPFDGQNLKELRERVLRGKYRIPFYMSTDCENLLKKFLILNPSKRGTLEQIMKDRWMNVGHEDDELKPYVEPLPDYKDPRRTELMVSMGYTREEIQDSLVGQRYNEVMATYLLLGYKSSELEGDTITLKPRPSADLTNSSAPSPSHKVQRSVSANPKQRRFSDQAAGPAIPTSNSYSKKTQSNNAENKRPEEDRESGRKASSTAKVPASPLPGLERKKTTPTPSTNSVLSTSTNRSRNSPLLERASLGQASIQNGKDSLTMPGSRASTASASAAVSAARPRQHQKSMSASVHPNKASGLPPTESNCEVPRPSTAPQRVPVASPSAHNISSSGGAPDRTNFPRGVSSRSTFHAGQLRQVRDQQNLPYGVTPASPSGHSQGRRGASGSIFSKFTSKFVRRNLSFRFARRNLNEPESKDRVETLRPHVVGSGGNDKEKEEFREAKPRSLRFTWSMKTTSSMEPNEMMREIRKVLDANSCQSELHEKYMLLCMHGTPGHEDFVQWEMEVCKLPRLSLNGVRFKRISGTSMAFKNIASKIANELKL
ASSAY NOTES: KINATIV assay
Type: cell-based
PARTICULARS: 1 μM, 90 minutes, BCWM.1 cells
Give the value in % but do not write % after it.

{"COMPOUND": "C=CC(=O)N1CC[C@@H](Nc2nccc(Nc3ncc(C(=O)Nc4c(C)cccc4C)s3)n2)C1", "EXPERIMENTAL RESULT": 3.6}
{"COMPOUND": "C=CC(=O)N1CCCCC(Nc2nccc(Nc3ncc(C(=O)Nc4c(C)cccc4C)s3)n2)C1 (stereo not shown)", "EXPERIMENTAL RESULT": 7.7}
{"COMPOUND": "C=CC(=O)N1CCC(CNc2nccc(Nc3ncc(C(=O)Nc4c(C)cccc4C)s3)n2)C1 (racemic)", "EXPERIMENTAL RESULT": 12.1}

Field % change of MS signal compared to control sample (entry C=CC(=O)N1CCC(Cn2ccc(Nc3ncc(C(=O)Nc4c(C)cccc4Cl)s3)n2)C1 (stereo not shown) ) reads 15.4

---

TESTED SYSTEM: KHS1 (Homo sapiens (Human))
Sequence (Q9Y4K4 whole entry): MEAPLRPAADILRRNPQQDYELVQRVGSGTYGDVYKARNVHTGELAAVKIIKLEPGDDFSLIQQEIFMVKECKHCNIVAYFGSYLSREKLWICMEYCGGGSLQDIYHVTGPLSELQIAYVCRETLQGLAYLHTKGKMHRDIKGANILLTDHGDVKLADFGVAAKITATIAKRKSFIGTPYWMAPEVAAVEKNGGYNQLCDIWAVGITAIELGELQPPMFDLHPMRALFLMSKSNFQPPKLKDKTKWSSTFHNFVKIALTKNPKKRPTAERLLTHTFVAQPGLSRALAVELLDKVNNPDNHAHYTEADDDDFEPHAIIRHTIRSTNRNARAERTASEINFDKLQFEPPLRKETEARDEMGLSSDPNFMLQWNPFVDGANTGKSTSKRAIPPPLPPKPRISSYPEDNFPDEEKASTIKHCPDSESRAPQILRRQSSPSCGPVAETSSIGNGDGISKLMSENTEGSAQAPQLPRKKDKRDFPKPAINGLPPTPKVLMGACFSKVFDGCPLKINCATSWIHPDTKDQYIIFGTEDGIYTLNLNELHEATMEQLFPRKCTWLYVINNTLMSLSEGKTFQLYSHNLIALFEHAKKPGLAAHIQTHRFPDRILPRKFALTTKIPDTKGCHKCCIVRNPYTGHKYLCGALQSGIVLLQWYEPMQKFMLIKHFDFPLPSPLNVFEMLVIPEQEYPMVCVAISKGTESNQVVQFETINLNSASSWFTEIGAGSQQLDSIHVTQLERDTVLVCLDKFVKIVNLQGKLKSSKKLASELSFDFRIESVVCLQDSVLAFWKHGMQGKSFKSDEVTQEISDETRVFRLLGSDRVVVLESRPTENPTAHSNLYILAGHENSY
ASSAY NOTES: KINATIV assay
Type: cell-based
PARTICULARS: 1 μM, 90 minutes, BCWM.1 cells
# % change of MS signal compared to control sample per record follows
Reply with just the number (in %).

Below, 3 compounds whose answers are already recorded.
{"COMPOUND": "C=CC(=O)N1CCC(Cn2ccc(Nc3ncc(C(=O)Nc4c(C)cccc4Cl)s3)n2)C1 (stereo not shown)", "EXPERIMENTAL RESULT": "−0.6"}
{"COMPOUND": "C=CC(=O)N1CCC(CNc2nccc(Nc3ncc(C(=O)Nc4c(C)cccc4C)s3)n2)C1 (racemic)", "EXPERIMENTAL RESULT": "−8.4"}
{"COMPOUND": "C=CC(=O)N1CCCCC(Nc2nccc(Nc3ncc(C(=O)Nc4c(C)cccc4C)s3)n2)C1 (stereo not shown)", "EXPERIMENTAL RESULT": "−5.9"}

Now consider the entry below.
# compound C=CC(=O)N1CC[C@@H](Nc2nccc(Nc3ncc(C(=O)Nc4c(C)cccc4C)s3)n2)C1 ; its % change of MS signal compared to control sample = −2.1

---

Each record here notes measured % change of MS signal compared to control sample.
TESTED SYSTEM: eEF2K (Homo sapiens (Human), UniProt O00418)
Sequence (O00418 whole entry): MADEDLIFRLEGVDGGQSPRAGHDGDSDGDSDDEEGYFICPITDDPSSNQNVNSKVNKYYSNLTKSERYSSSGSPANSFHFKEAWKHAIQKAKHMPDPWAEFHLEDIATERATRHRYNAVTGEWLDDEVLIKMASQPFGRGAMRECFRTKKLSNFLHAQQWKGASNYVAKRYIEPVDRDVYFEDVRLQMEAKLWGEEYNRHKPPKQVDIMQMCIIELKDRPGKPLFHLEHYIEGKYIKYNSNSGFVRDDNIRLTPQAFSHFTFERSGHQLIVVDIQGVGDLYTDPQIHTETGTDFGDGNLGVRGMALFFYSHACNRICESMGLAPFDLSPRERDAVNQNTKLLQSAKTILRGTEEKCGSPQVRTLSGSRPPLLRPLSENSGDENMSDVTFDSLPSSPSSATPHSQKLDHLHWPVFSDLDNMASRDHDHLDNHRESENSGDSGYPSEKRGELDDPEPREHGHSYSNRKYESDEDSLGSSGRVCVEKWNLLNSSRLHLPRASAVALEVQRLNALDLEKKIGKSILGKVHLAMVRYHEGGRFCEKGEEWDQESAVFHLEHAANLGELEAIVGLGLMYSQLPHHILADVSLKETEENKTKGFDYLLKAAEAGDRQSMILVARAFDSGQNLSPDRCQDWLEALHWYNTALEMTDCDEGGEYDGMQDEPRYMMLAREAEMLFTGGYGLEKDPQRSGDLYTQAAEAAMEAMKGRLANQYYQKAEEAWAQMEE
ASSAY NOTES: KINATIV assay
Assay type: cell-based
PARTICULARS: 1 μM, 90 minutes, BCWM.1 cells
Note: unit % is implicit; provide only the numeric part.

{"COMPOUND": "C=CC(=O)N1CCCCC(Nc2nccc(Nc3ncc(C(=O)Nc4c(C)cccc4C)s3)n2)C1 (stereo not shown) [Example I-7]", "EXPERIMENTAL RESULT": 4.9}
{"COMPOUND": "C=CC(=O)N1CC[C@@H](Nc2nccc(Nc3ncc(C(=O)Nc4c(C)cccc4C)s3)n2)C1 [Example I-4]", "EXPERIMENTAL RESULT": 0.3}
{"COMPOUND": "C=CC(=O)N1CCC(Cn2ccc(Nc3ncc(C(=O)Nc4c(C)cccc4Cl)s3)n2)C1 (stereo not shown) [II-1]", "EXPERIMENTAL RESULT": "−3.8"}

Pending compound:
% change of MS signal compared to control sample measured on C=CC(=O)N1CCC(CNc2nccc(Nc3ncc(C(=O)Nc4c(C)cccc4C)s3)n2)C1 (racemic) [Example I-8] = −1.5
